Value source: patent US20170362324A1

Target Entity: T1, human αvβ5 expressed on BaF3 cells (stably transfected with human αv and β5 subunits) (human, UniProt P06756 31-1048; P18084 24-799)
T1 construct: also called αvβ5-BaF3; BaF3-hu αvβ5
T1 sequence (P06756 31-1048 limits assumed, chain 1 of 2): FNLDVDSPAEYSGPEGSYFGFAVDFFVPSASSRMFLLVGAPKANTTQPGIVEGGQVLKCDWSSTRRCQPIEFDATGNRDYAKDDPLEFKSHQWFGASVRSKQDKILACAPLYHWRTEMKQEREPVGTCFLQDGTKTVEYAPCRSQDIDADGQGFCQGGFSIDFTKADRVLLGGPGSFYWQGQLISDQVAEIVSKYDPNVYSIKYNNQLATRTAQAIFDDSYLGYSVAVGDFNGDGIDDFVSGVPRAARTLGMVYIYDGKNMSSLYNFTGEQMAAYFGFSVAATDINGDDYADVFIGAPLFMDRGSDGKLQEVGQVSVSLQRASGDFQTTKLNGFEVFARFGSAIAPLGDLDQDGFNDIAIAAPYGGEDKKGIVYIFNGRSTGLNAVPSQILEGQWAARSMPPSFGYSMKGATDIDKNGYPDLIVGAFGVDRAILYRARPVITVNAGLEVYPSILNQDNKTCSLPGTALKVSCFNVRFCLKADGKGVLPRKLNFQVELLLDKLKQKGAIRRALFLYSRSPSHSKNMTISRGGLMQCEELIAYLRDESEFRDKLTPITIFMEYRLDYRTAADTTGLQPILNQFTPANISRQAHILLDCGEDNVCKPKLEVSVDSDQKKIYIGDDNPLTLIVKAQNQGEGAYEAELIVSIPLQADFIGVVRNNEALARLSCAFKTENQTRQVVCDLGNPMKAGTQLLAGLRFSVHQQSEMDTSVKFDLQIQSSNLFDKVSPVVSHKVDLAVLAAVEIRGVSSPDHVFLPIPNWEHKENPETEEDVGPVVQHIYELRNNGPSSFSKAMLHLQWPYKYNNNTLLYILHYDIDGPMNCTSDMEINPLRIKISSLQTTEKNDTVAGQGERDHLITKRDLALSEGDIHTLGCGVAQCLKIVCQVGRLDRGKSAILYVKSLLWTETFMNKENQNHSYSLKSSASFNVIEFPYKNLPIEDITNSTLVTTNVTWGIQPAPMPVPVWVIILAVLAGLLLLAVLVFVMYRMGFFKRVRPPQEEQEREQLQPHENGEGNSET
T1 sequence (P18084 24-799 limits assumed, chain 2 of 2): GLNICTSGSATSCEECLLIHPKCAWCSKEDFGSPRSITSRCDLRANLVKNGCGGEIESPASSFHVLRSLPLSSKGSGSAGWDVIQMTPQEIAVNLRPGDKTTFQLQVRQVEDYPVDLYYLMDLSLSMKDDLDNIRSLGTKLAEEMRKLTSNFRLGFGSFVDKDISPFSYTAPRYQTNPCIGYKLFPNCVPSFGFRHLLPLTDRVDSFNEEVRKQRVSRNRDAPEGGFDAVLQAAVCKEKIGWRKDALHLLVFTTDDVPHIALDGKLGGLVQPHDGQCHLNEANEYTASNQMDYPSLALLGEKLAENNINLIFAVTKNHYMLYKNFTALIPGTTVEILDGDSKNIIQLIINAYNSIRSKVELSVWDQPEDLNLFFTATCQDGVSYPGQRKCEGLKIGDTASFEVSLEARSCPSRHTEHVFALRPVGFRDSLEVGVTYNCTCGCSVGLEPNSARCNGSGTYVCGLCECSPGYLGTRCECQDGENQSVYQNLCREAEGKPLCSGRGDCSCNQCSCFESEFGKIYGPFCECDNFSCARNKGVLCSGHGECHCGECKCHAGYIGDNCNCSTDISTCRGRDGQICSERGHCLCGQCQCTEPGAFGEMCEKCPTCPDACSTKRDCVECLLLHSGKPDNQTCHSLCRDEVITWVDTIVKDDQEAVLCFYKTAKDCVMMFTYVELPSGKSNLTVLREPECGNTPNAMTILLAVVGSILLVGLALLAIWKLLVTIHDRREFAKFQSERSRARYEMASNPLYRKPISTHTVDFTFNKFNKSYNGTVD
Protocol: FACS on BaF3-hu αvβ5 cells
Endpoint Name: Fold chg. (EC50 against mouse chimeric ALULA) (fold)
Respond with the bare value in fold.

Worked set:
Inquiry: Which Fold chg. (EC50 against mouse chimeric ALULA) is listed for VH5/VL2 Agly-IgG4.P (S228P)/IgG1 (N297Q) (antibody, V domains shown, also called VH5/VL2 (Agly-IgG4P/G1); H5/L2) VH: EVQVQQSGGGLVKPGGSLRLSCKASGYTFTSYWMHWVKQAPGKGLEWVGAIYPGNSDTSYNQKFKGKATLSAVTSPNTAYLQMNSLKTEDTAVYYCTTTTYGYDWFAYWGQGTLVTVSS VL: NIQMTQSPSSLSASVGDRVTMSCKSSQSVLYSSNQKNYLAWYQQKPGKSPKLLIYWASTRESGVPDRFTGSGSGTDFTLTISSLQPEDFATYYCHQYLSSLTFGQGTKLEIKR ?
Reply text: 0.5

Inquiry: Which Fold chg. (EC50 against mouse chimeric ALULA) is listed for VH2/VL2 Agly-IgG4.P (S228P)/IgG1 (N297Q) (antibody, V domains shown, also called VH2/VL2 (Agly-IgG4P/G1); H2/L2) VH: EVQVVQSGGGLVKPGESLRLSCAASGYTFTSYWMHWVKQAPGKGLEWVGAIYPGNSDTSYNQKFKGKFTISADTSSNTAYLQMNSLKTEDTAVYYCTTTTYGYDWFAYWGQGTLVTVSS VL: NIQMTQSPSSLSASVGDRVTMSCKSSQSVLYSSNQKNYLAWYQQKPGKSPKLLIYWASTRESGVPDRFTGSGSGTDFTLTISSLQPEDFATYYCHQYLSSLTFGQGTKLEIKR ?
Reply text: 1.1

Inquiry: Which Fold chg. (EC50 against mouse chimeric ALULA) is listed for ALULA-H4/L2-IgG4.P(S228P)/IgG1(N297Q) (antibody, V domains shown, Hybrid aglycosylated IgG4.P (S228P)/IgG1 (N297Q) heavy chain, human kappa light chain; also called VH4/VL2 (Agly-IgG4P/G1); H4/L2 antibody) VH: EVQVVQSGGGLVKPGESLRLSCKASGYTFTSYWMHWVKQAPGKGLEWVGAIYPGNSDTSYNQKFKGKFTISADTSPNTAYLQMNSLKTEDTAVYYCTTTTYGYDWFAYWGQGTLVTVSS VL: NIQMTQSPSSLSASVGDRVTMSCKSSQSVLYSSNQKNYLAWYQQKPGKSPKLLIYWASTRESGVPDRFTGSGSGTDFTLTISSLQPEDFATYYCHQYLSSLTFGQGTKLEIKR ?
Reply text: 0.6

---
Inquiry: Which Fold chg. (EC50 against mouse chimeric ALULA) is listed for VH4/VL0 Agly-IgG4.P (S228P)/IgG1 (N297Q) (antibody, V domains shown, also called VH4/VL0 (Agly-IgG4P/G1); H4/L0) VH: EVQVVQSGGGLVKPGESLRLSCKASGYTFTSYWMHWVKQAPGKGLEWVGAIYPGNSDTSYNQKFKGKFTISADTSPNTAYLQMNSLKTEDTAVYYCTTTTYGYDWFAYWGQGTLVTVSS VL: DIQMTQSPSSVSASVGDRVTITCKSSQSVLYSSNQKNYLAWYQQKPGKAPKLLIYWASTRESGVPSRFSGSGSGTDFTLTISSLQPEDFATYYCHQYLSSLTFGQGTKVEIKR ?
Reply text: 0.5
